Measured HAI titer, 0 Rh- RBC by item
biological target: Hu/NoV/GI.1/P7-587/2007/Stromstad/Sweden VLP (human norovirus GI.1); assay: cell-based or functional assay

>  <binder>
VHH 7.3 (VHH, llama VHH, Norwalk library; pHEN6, C-terminal His6 tag; also called clone 7.3) VHH: QVKLQESGGGLVQPGGSLRLSCTASRSIFTRAMAWYRQAPGKQRELVAAIDSGDRTHYADSVKGRFTISRNNAKDTLYLQMNSLKSEDTAVYYCNANLGALLDYWGQGTQVTVSS

>  <unit-of-measure>
µg/mL

>  <HAI titer, 0 Rh- RBC>
0.05

$$$$
>  <binder>
VHH 14.5 (VHH, llama VHH, Norwalk library; pHEN6, C-terminal His6 tag) VHH: DVQLQASGGGLVQAGGSLRLSCVASARTFSSYAMGWFRQAPGKEREFVAAISWSGASTDYADSVKGRFTISRDNAKKTVYLQMNTLKPEDTAVYYCAAHHITPTGSYYYSEPLPVDMVYDYWGQGTQVTVSS

>  <unit-of-measure>
µg/mL

>  <HAI titer, 0 Rh- RBC>
0.05

$$$$
>  <binder>
VHH 6.3 (VHH, llama VHH, Norwalk (GI.1) library; also called clone 6.3) VHH: QVQLQQSGGGLVQPGGSLRLSCAASGSIFSIHTMGWYRQAPGKQRELVTTITTGGTTNYADSVKGRFTISRDDAKNTVYLQMNNLKPEDTAVYYCYALIQTASTTWYRQYWGQGTQVTVSS

>  <unit-of-measure>
µg/mL

>  <HAI titer, 0 Rh- RBC>
0.05

$$$$
>  <binder>
VHH 12.2 (VHH, llama VHH, Norwalk library; pHEN6, C-terminal His6 tag) VHH: DVQLQASGGGLVQAGGSLRLSCAASGSTISSYAMAWYRQAPGKRRELVAHISSGGSTNYADSVKGRFTISRDNAKNTVYLQMNSLKPEDTAVYYCNIYYGGDYYYTGVKPNPWGQGTQVTVSS

>  <unit-of-measure>
µg/mL

>  <HAI titer, 0 Rh- RBC>
0.8

$$$$
>  <binder>
VHH 8.1 (VHH, llama VHH, Norwalk library; pHEN6, C-terminal His6 tag) VHH: QVKLQESGGGLVQAGGSLRLSCAASGFTFATYAMAWYRQAPGKQRELVASISNFGSTAYGDSVKGRFTISRDNAKNTVYLEMNSLKSEDTAVYYCKRVRDVIGRPELWGQGTQVTVSS

>  <unit-of-measure>
µg/mL

>  <HAI titer, 0 Rh- RBC>
0.78

$$$$
